# Test system: HCT116 cells
# test: Cytotoxicity assay (WST-1 cell viability)
# Type: cell-based, human
# test.parameters: Homo sapiens, HCT-116, read-out: IC50 (cytotoxicity), HCT116, GSH depletion (Example 2)
measured.metric: IC50 (µM)
The answer is to be given in µM; state only the numeric part.

q: Quick one: IC50 for NC(=O)c1ccc(I)c([N+](=O)[O-])c1 [Iniparib, 4-iodo-3-nitrobenzamide] ?
a: 8.2

---

Listed here: items and their measured Cmax.
# test: Phase I clinical trial GBM, pharmacokinetics
# Assay type: in vivo, human
# test.parameters: human; 8.6 mg/kg IV 2×/week; geometric mean±SD, plasma; read-out: Cmax

| compound | obs.value |
| --- | --- |
| NC(=O)c1ccc(I)c([N+](=O)[O-])c1 [Iniparib, 4-iodo-3-nitrobenzamide] | 1520 ng/mL |

# evaluate next
q: Quick one: Cmax for NC(=O)c1ccc(I)c(N)c1 [I-ABM, 4-iodo-3 aminobenzamide] ?
a: 9.7 ng/mL
